# Test system: Yej^+rimL^− strain
# test.description: organism not typed
# Type: cell-based
# measurement.setup: supernatant treated with trypsin 50 μg/mL, 37 °C, 3 h, pH 6.8; agar diffusion, 37 °C 24 h; dash = no zone
# Procedure: To analyze the antimicrobial ability of the variants, we measured the inhibition zones of all 21 variants by the agar diffusion method. The peptide moiety of McC was recognized by a YejABEf-peptide transporter. […] The fermentation supernatants and pure products were used to characterize the bacteriostatic effects of McC variants by the agar diffusion and microdilution methods. […] After incubation at 37 °C for 24 h, the diameters of the inhibition zones were determined. […]
Where a SMILES comes first, the peptide text is derived from it.
test.readout: Diameters of the inhibition zones, Trypsin-Treated Group, Yej^+rimL^− (mm)
# value in mm; strip the unit string

Noted for CSCC[C@H](NC=O)C(=O)N[C@@H](Cc1ccccc1)C(=O)N[C@H](C(=O)NCC(=O)N[C@@H](CC(N)=O)C(=O)N[C@@H](C)C(=O)N[C@@H](CC(=O)O)C(=O)NP(=O)(OCCCN)OC[C@H]1O[C@@H](n2cnc3c(N)ncnc32)[C@H](O)[C@@H]1O)[C@@H](C)O (some centres unmarked) [R2F] (HELM PEPTIDE1{[O=C[*:2]].M.F.T.G.N.A.[NCCCOP(=O)(NC(=O)[C@H](CC(=O)O)N[*:1])OC[C@H]1O[C@@H](n2cnc3c(N)ncnc32)[C@H](O)[C@@H]1O]}$$$$V2.0) : its Diameters of the inhibition zones, Trypsin-Treated Group, Yej^+rimL^− reads 10.95

For record CSCC[C@H](NC=O)C(=O)N[C@@H](CO)C(=O)N[C@H](C(=O)NCC(=O)N[C@@H](CC(N)=O)C(=O)N[C@@H](C)C(=O)N[C@@H](CC(=O)O)C(=O)NP(=O)(OCCCN)OC[C@H]1O[C@@H](n2cnc3c(N)ncnc32)[C@H](O)[C@@H]1O)[C@@H](C)O (some centres unmarked) [R2S] (HELM PEPTIDE1{[O=C[*:2]].M.S.T.G.N.A.[NCCCOP(=O)(NC(=O)[C@H](CC(=O)O)N[*:1])OC[C@H]1O[C@@H](n2cnc3c(N)ncnc32)[C@H](O)[C@@H]1O]}$$$$V2.0) the listed Diameters of the inhibition zones, Trypsin-Treated Group, Yej^+rimL^− is 16.34

Record summary for CSCC[C@H](NC=O)C(=O)N[C@@H](Cc1c[nH]cn1)C(=O)N[C@H](C(=O)NCC(=O)N[C@@H](CC(N)=O)C(=O)N[C@@H](C)C(=O)N[C@@H](CC(=O)O)C(=O)NP(=O)(OCCCN)OC[C@H]1O[C@@H](n2cnc3c(N)ncnc32)[C@H](O)[C@@H]1O)[C@@H](C)O (some centres unmarked) [R2H] (HELM PEPTIDE1{[O=C[*:2]].M.H.T.G.N.A.[NCCCOP(=O)(NC(=O)[C@H](CC(=O)O)N[*:1])OC[C@H]1O[C@@H](n2cnc3c(N)ncnc32)[C@H](O)[C@@H]1O]}$$$$V2.0) : reported Diameters of the inhibition zones, Trypsin-Treated Group, Yej^+rimL^− = 15.92

Form field Diameters of the inhibition zones, Trypsin-Treated Group, Yej^+rimL^−, entry CSCC[C@H](NC=O)C(=O)NCC(=O)N[C@H](C(=O)NCC(=O)N[C@@H](CC(N)=O)C(=O)N[C@@H](C)C(=O)N[C@@H](CC(=O)O)C(=O)NP(=O)(OCCCN)OC[C@H]1O[C@@H](n2cnc3c(N)ncnc32)[C@H](O)[C@@H]1O)[C@@H](C)O (some centres unmarked) [R2G] (HELM PEPTIDE1{[O=C[*:2]].M.G.T.G.N.A.[NCCCOP(=O)(NC(=O)[C@H](CC(=O)O)N[*:1])OC[C@H]1O[C@@H](n2cnc3c(N)ncnc32)[C@H](O)[C@@H]1O]}$$$$V2.0) : 14.15

The compound listed as CSCC[C@H](NC=O)C(=O)N[C@@H](CCC(N)=O)C(=O)N[C@H](C(=O)NCC(=O)N[C@@H](CC(N)=O)C(=O)N[C@@H](C)C(=O)N[C@@H](CC(=O)O)C(=O)NP(=O)(OCCCN)OC[C@H]1O[C@@H](n2cnc3c(N)ncnc32)[C@H](O)[C@@H]1O)[C@@H](C)O (some centres unmarked) [R2Q] (HELM PEPTIDE1{[O=C[*:2]].M.Q.T.G.N.A.[NCCCOP(=O)(NC(=O)[C@H](CC(=O)O)N[*:1])OC[C@H]1O[C@@H](n2cnc3c(N)ncnc32)[C@H](O)[C@@H]1O]}$$$$V2.0) shows Diameters of the inhibition zones, Trypsin-Treated Group, Yej^+rimL^− equal to 19.38

All values here come from paper PMC10525924.
